- assay-target: 5-hydroxytryptamine receptor 4 (Homo sapiens) (UniProt Q13639)
- Sequence (Q13639 whole entry): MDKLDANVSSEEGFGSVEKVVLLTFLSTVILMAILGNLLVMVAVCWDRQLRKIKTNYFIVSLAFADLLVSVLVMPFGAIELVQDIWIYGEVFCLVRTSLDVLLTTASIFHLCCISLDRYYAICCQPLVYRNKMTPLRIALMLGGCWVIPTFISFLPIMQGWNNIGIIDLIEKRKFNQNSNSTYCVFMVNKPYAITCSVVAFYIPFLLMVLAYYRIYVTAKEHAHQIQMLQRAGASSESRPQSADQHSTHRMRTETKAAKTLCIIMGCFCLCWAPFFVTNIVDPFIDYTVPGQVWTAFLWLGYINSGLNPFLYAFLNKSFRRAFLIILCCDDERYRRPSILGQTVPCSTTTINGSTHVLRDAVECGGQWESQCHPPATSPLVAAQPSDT
- measurement-notes: Agonist activity at human 5-HT4R expressed in GloSensor-22F6 expressing 2B2 cells co-expressing Galpha-s assessed as increase in cAMP accumulation up to 60 mins by luminometry relative to control 5-HT
- Type: functional, cell-based
measure: Ratio
Respond numerically, and do not add a unit to the figure.

Some solved entries appear below for comparison.
COc1cc(N)c(Cl)cc1C(=O)OCCN1CCC(NC(=O)OC(C)(C)C)CC1    0.21
CCCCNC(=O)NC1CCN(CCOC(=O)c2cc(Cl)c(N)cc2OC)CC1    0.24

Form field Ratio, entry COc1cc(N)c(Cl)cc1C(=O)OCCN1CCC(NC(=O)NCCOCCOCCNC(=O)NC2CCN(CCOC(=O)c3cc(Cl)c(N)cc3OC)CC2)CC1 : 0.28

Form field Ratio, entry COc1cc(N)c(Cl)cc1C(=O)OCCCN1CCCCC1 : 0.09

Form field Ratio, entry COc1cc(N)c(Cl)cc1C(=O)OCCN1CCC(NC(=O)NCCOCCOCCOCCOCCOCCOCCOCCOCCN=[N+]=[N-])CC1 : 0.18

Form field Ratio, entry COc1cc(N)c(Cl)cc1C(=O)OCCN1CCC(NC(=O)NCCOCCOCCOCCOCCOCCOCCOCCOCCn2cc(CNC(=O)NCCCN(CCCCN(CCCNC(=O)NCc3cn(CCOCCOCCOCCOCCOCCOCCOCCOCCNC(=O)NC4CCN(CCOC(=O)c5cc(Cl)c(N)cc5OC)CC4)nn3)CCCNC(=O)NCc3cn(CCOCCOCCOCCOCCOCCOCCOCCOCCNC(=O)NC4CCN(CCOC(=O)c5cc(Cl)c(N)cc5OC)CC4)nn3)CCCNC(=O)NCc3cn(CCOCCOCCOCCOCCOCCOCCOCCOCCNC(=O)NC4CCN(CCOC(=O)c5cc(Cl)c(N)cc5OC)CC4)nn3)nn2)CC1 : 0.14
